test summary: Stress stability test 2 (3 hrs at 100° C., A450)
Format: physicochemical
condition notes: crystallisation pH 4.80, hydrate
recorded metric: A450 after stress stability test (3 h, 100° C.)
Please give only the number in your answer, with no unit.

Q: // returns reported A450 after stress stability test (3 h, 100° C.) for input CC1=C(C(=O)O)N2C(=O)[C@@H](NC(=O)[C@H](N)C3=CCC=CC3)[C@H]2SC1 [V, cephradine hydrate]
A: 0.056

Q: // returns reported A450 after stress stability test (3 h, 100° C.) for input CC1=C(C(=O)O)N2C(=O)[C@@H](NC(=O)[C@H](N)C3=CCC=CC3)[C@H]2SC1 [VII, cephradine hydrate]
A: 0.330

Q: // returns reported A450 after stress stability test (3 h, 100° C.) for input CC1=C(C(=O)O)N2C(=O)[C@@H](NC(=O)[C@H](N)C3=CCC=CC3)[C@H]2SC1 [VI, cephradine hydrate]
A: 0.291

Q: // returns reported A450 after stress stability test (3 h, 100° C.) for input CC1=C(C(=O)O)N2C(=O)[C@@H](NC(=O)[C@H](N)C3=CCC=CC3)[C@H]2SC1 [IV, cephradine hydrate]
A: 0.301
